# assay details: solvent given as SMILES
# test settings: in CCO
Param label: returns T when absorption maximum < 400 nm, returns F otherwise, including exact equality.

Threshold test, absorption maximum < 400 nm: `Cn1c2cc(N3CCCCC3)c(F)cc2c(=O)c2cc(F)c(N3CCCCC3)cc21`
T

Threshold test, absorption maximum < 400 nm: `O=Cc1ccc(-c2ccc(-c3nc4ccccc4s3)c(O)c2)s1`
T

Threshold test, absorption maximum < 400 nm: `CN(C)c1ccc(/C=C/C(=O)c2ccc(Cl)cc2)cc1`
F

Threshold test, absorption maximum < 400 nm: `CC(C)=CCN1C(=O)c2cccc3c2c(cc2nc(C)oc23)C1=O`
T

Threshold test, absorption maximum < 400 nm: `Cc1cc(=O)oc2c3c4c(cc12)CCCN4CCC3`
T

Threshold test, absorption maximum < 400 nm: `CCC(CC)c1ccc2cc3c([o+]c2c1)/C(=C/Cc1ccccc1)CCC3`
F

Threshold test, absorption maximum < 400 nm: `CC1(C)Nc2cc3nc4cc(F)c(F)cc4nc3cc2N1`
F

Threshold test, absorption maximum < 400 nm: CC1(C)CC(=O)C2=C(C1)Oc1ccc3cc(O)ccc3c1C2c1ccccn1 (stereo unspecified)
T

Threshold test, absorption maximum < 400 nm: CN(CCO)c1ccc(/C=C/C2=C(C#N)C(C(C#N)C#N)OC2(C)C)cc1 (stereo unspecified)
F

Threshold test, absorption maximum < 400 nm: `CN1C(=Cc2c([O-])c(=O)/c2=N\C#N)C(C)(C)c2ccccc21`
F

Threshold test, absorption maximum < 400 nm: `Cc1c(COC(=O)Cc2cccc3ccccc23)n2c(OCC(=O)Cc3cccc4ccccc34)c(C)c(=O)n2c1=O`
T

Threshold test, absorption maximum < 400 nm: `N#Cc1ccc(C[C@H](N)C(=O)O)cc1`
T

Threshold test, absorption maximum < 400 nm: `CC1(C)CC(/C=C/c2ccc(N3CCOCCOCCOCCOCC3)cc2)=CC(=C(C#N)C#N)C1`
F

Threshold test, absorption maximum < 400 nm: `CCN(CC)c1cc2oc(=O)cc(C)c2cc1C`
F

Threshold test, absorption maximum < 400 nm: `C#Cc1ccc2cc(/C=C/C(=O)OCC)c(=O)oc2c1`
T

Threshold test, absorption maximum < 400 nm: `CCOC(=O)c1cc(C(=O)OCC)c2c(C)ccc(OC(=O)OC(C)(C)C)c2n1`
T

Threshold test, absorption maximum < 400 nm: `CN(C)c1ccc(/C=C/c2cc[n+](CCCCC[n+]3ccc(/C=C/c4ccc(N(C)C)cc4)cc3)cc2)cc1`
F

Threshold test, absorption maximum < 400 nm: `CCN(CC)c1ccc(/C=C/C2=[O+][B-](F)(F)Oc3c2c(=O)oc2cc(N(CC)CC)ccc32)cc1`
F

Threshold test, absorption maximum < 400 nm: C[P+]1(c2ccccc2)c2ccccc2-c2sc3ccccc3c21 (stereo unspecified)
T

---

# assay details: solvent given as SMILES
# test settings: in CCO
Param label: returns Fulfilled when absorption maximum < 400 nm, returns Not fulfilled otherwise, including exact equality.

Threshold test, absorption maximum < 400 nm: CC(NC(=O)OC(C)(C)C)C(=O)OCc1ccc2c3cccc4cccc(c5cccc1c52)c43 (stereo not given)
Not fulfilled

Threshold test, absorption maximum < 400 nm: `COc1ccc2c(c1)C(=O)c1ccccc1-2`
Not fulfilled

Threshold test, absorption maximum < 400 nm: `CC1(C)CC(/C=C/c2ccc(-n3c4ccccc4c4ccccc43)cc2)=CC(=C(C#N)C#N)C1`
Not fulfilled

Threshold test, absorption maximum < 400 nm: `COc1cc(OC)cc(-c2ccc(-c3ccc(C#N)s3)s2)c1`
Fulfilled

Threshold test, absorption maximum < 400 nm: `C#Cc1ccc2ccc3oc(=O)cc(C)c3c2c1`
Fulfilled

Threshold test, absorption maximum < 400 nm: `CN(C)c1ccc2nc(/C=C/c3cc4c5c(c3)CCCN5CCC4)c(=O)oc2c1`
Not fulfilled

Threshold test, absorption maximum < 400 nm: `CC1=CC(C)(C)N(C)c2cc3c(cc21)C(c1ccc(Br)cc1)=c1cc2c(cc1O3)=[N+](C)C(C)(C)C=C2C`
Not fulfilled

Threshold test, absorption maximum < 400 nm: `F[B-]1(F)n2cccc2C(c2ccc(-c3c4ccccc4c(-c4ccccc4)c4ccccc34)cc2)=C2C=CC=[N+]21`
Not fulfilled

Threshold test, absorption maximum < 400 nm: `COc1ccc2cc([C@H](C)C(=O)O)ccc2c1`
Fulfilled

Threshold test, absorption maximum < 400 nm: `CN(C)c1ccc2c(c1)-c1ccccc1C2=O`
Not fulfilled
